Ref: paper PMC9505734

protocol description: Pharmacokinetic experiment after oral administration in rats
Assay type: in vivo, SD rats
condition context: male, SD, plasma, 10 mg/kg; analyte NVR 3-778 after oral NVR 3-778, rat
reported metric: Cmax (ng/mL)
Your answer is read as ng/mL, so omit the unit and give the number.

QUERY: Query: Cmax; subject: `O=C(Nc1cc(F)c(F)c(F)c1)c1ccc(F)c(S(=O)(=O)N2CCC(O)CC2)c1`
RESULT: 1160

---

protocol description: Pharmacokinetic experiment after oral administration in rats
Format: in vivo, SD rats
condition context: male, SD; analyte N6 in plasma after oral N6, 10 mg/kg (18.8 nmol/kg), rat
reported metric: Tmax (min)
Your answer is read as min, so omit the unit and give the number.

QUERY: Query: Tmax; subject: `O=C(O)CCC(=O)OC1CCN(S(=O)(=O)c2cc(C(=O)Nc3cc(F)c(F)c(F)c3)ccc2F)CC1`
RESULT: 15
